E. coli Vogel data, read-out MIC
Write the value in µg/mL as a bare number.

# count of solved cases: 5
q: Which MIC is reported with E. coli Vogel for this entry: CC(=O)NC(CCC(N)=O)C(=O)Nc1ccc(-c2ncc(C(=O)N[C@@H](C(=O)NC3C(=O)N4C(C(=O)O)=C(CSc5nnnn5C)CSC34)c3ccccc3)c(O)n2)cc1 (mixture of isomers) ?
a: 0.8

q: Recall the recorded MIC for CC(=O)NC(C)C(=O)Nc1ccc(-c2ncc(C(=O)N[C@@H](C(=O)NC3C(=O)N4C(C(=O)O)=C(CSc5nnnn5CC(=O)O)CSC34)c3ccccc3)c(O)n2)cc1 (mixture of isomers) with E. coli Vogel and state it.
a: 3.1

q: # query: MIC | item CC(=O)N[C@H](C)C(=O)Nc1ccc(-c2ncc(C(=O)N[C@@H](C(=O)NC3C(=O)N4C(C(=O)O)=C(CSc5nnnn5C)CSC34)c3ccccc3)c(O)n2)cc1 (stereo partly shown) | system: E. coli Vogel
a: 3.1

q: // fetch E. coli Vogel MIC for CC(=O)N[C@H](C)C(=O)Nc1ccc(-c2ncc(C(=O)N[C@@H](C(=O)NC3C(=O)N4C(C(=O)O)=C(CSc5nnnn5C)CSC34)c3ccc(O)cc3)c(O)n2)cc1 (stereo partly shown)
a: 1.6

q: For E. coli Vogel, provide MIC of CC(=O)OCC1=C(C(=O)O)N2C(=O)[C@@H](NC(=O)[C@H](NC(=O)c3cnc(-c4ccc(NC(=O)C5CCC(=O)N5)cc4)nc3O)c3ccccc3)[C@H]2SC1 (mixture of isomers) please.
a: 12.5

***
q: Checklist item: MIC tested on E. coli Vogel, entry CC(=O)NC(C)(C)C(=O)Nc1ccc(-c2ncc(C(=O)N[C@@H](C(=O)NC3C(=O)N4C(C(=O)O)=C(CSc5nnnn5C)CSC34)c3ccccc3)c(O)n2)cc1 (stereo partly shown) , value?
a: 3.1

q: Short answer please: MIC, E. coli Vogel, entry CC(=O)NCC(=O)Nc1ccc(-c2ncc(C(=O)N[C@@H](C(=O)NC3C(=O)N4C(C(=O)O)=C(CSc5nnc(C)s5)CSC34)c3ccccc3)c(O)n2)cc1 (stereo partly shown)
a: 1.6

q: Give recorded MIC with E. coli Vogel for the following compound: O=C(O)Cn1nnnc1SCC1=C(C(=O)O)N2C(=O)C(NC(=O)[C@H](NC(=O)c3cnc(-c4ccc(NC(=O)CN5CCCC5=O)cc4)nc3O)c3ccccc3)C2SC1 (stereo partly shown)
a: 3.1

q: Give MIC (E. coli Vogel) of the following compound: CC(=O)OCC1=C(C(=O)O)N2C(=O)[C@@H](NC(=O)[C@H](NC(=O)c3cnc(-c4ccc(NC(=O)C5CCCN5C(C)=O)cc4)nc3O)c3ccccc3)[C@H]2SC1 (mixture of isomers)
a: 12.5

q: I'm curious: which MIC was measured for `CC(=O)OCC1=C(C(=O)O)N2C(=O)[C@@H](NC(=O)[C@H](NC(=O)c3cnc(-c4ccc(NC(=O)[C@@H](C)N)cc4)nc3O)c3ccccc3)[C@H]2SC1` tested on E. coli Vogel?
a: 12.5
